Molecular target: human Orexin 1 receptor (Homo sapiens, UniProt O43613)
Construct: stably expressing the full-length human Orexin 1 receptor; expressed in transfected cells; host or cells: CHO-K1 (CHO-K1/hOX1), co-expressing aequorin
Test: Assay A: OX1R IP1 (in vitro OX1R potency)
Type: cell-based
Collected OX2R Kb/OX1R Kb values appear next to each entry.

Sample records with OX2R Kb/OX1R Kb:
Input: Request the reported OX2R Kb/OX1R Kb associated with CCN(C(=O)c1nc(C)ccc1-n1nccn1)[C@@H](C)COc1ccc(C(F)(F)F)cn1
Output: 393

Input: Request the reported OX2R Kb/OX1R Kb associated with CCN(C(=O)c1c(F)cncc1-n1cccn1)[C@@H](C)COc1ccc(C(F)(F)F)cn1
Output: 167

Input: Request the reported OX2R Kb/OX1R Kb associated with CCN(C(=O)c1cc(OC)ncc1-c1ccn(C)n1)[C@@H](C)COc1ccc(C(F)(F)F)cn1
Output: 135

Next:
Input: Request the reported OX2R Kb/OX1R Kb associated with CCN(C(=O)c1ncccc1-n1nccn1)[C@@H](C)COc1ccc(C(F)(F)F)cn1
Output: 281

Input: Request the reported OX2R Kb/OX1R Kb associated with CCN(C(=O)c1cccnc1-n1nccn1)[C@@H](C)COc1ccc(Cl)cn1
Output: 138

Input: Request the reported OX2R Kb/OX1R Kb associated with CC[C@@H](CNc1cnc(C(F)(F)F)cn1)N(CC)C(=O)c1nc(C)ccc1-n1nccn1
Output: 319

Input: Request the reported OX2R Kb/OX1R Kb associated with CCN(C(=O)c1cnccc1-n1nccn1)[C@@H](C)COc1ccc(C(F)(F)F)cn1
Output: 240

Input: Request the reported OX2R Kb/OX1R Kb associated with CCN(C(=O)c1ccncc1-c1ccn(C)n1)[C@@H](C)COc1ccc(C(F)(F)F)cn1
Output: 184

Input: Request the reported OX2R Kb/OX1R Kb associated with CCN(C(=O)c1ncccc1-c1ccn(C)n1)[C@@H](C)COc1ccc(C(F)(F)F)cn1
Output: 190

Input: Request the reported OX2R Kb/OX1R Kb associated with CCN(C(=O)c1cc(OC)cnc1-n1nccn1)[C@@H](C)COc1ncc(C(F)(F)F)cc1F
Output: 649

Input: Request the reported OX2R Kb/OX1R Kb associated with CCN(C(=O)c1cnc(C)nc1-c1ccccc1)[C@@H](C)COc1cnc(C(F)(F)F)cn1
Output: 522

Input: Request the reported OX2R Kb/OX1R Kb associated with CCN(C(=O)c1cc(F)cnc1-n1nccn1)[C@@H](C)COc1ncc(C(F)(F)F)cc1F
Output: 817

Input: Request the reported OX2R Kb/OX1R Kb associated with CCN(C(=O)c1cc(F)cnc1-c1ncccn1)[C@@H](C)COc1cnc(C(F)(F)F)cn1
Output: 332

Input: Request the reported OX2R Kb/OX1R Kb associated with CCN(C(=O)c1cccnc1-n1nccn1)[C@@H](C)COc1ncc(C(F)(F)F)cc1F
Output: 289

Input: Request the reported OX2R Kb/OX1R Kb associated with CCN(C(=O)c1cc(F)cnc1-c1ncccn1)[C@@H](C)COc1ccc(C(F)(F)F)cn1
Output: 691

Input: Request the reported OX2R Kb/OX1R Kb associated with CCN(C(=O)c1ccc(C)nc1-n1nccn1)[C@@H](C)COc1cnc(C(F)(F)F)cn1
Output: 421

Input: Request the reported OX2R Kb/OX1R Kb associated with CCN(C(=O)c1ncc(C)cc1-c1ccn(C)n1)[C@@H](C)COc1ccc(C(F)(F)F)cn1
Output: 1660

----------
Molecular target: human Orexin 1 receptor (Homo sapiens, UniProt O43613)
Construct: stably expressing the full-length human Orexin 1 receptor; expressed in transfected cells; host or cells: CHO-K1 (CHO-K1/hOX1), co-expressing aequorin
Sequence (O43613 1-425): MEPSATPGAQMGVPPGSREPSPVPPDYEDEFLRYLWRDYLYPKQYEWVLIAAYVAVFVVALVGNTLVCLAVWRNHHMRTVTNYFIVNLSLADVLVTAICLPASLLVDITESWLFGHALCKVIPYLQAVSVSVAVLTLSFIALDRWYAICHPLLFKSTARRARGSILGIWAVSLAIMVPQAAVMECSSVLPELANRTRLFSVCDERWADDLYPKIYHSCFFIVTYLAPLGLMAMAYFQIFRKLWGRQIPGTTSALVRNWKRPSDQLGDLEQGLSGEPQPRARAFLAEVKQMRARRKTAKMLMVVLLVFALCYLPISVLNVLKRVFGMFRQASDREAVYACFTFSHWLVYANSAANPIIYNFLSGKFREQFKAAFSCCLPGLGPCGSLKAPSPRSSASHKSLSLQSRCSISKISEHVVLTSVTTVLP
Assay: Assay A: OX1R IP1 (in vitro OX1R potency)
Assay type: cell-based
Settings: Table 3; Orexin A concentration 0.5 nM
// assign met if Kb falls strictly below 7 nM, else not met (ties count as not met)

Some entries whose results are on file:
Input: Is 7 nM strictly greater than the compound's reported Kb? compound: CCN(C(=O)c1cc(F)cnc1-n1nccn1)[C@@H](C)COc1ncc(C(F)(F)F)cc1F [Example 21]
Output: met

Input: Is 7 nM strictly greater than the compound's reported Kb? compound: CCN(C(=O)c1cc(F)cnc1-c1ncccn1)[C@@H](C)COc1ccc(C(F)(F)F)cn1 [Example 70]
Output: met

Input: Is 7 nM strictly greater than the compound's reported Kb? compound: CCN(C(=O)c1ccc(C)nc1-n1nccn1)[C@@H](C)COc1cnc(C(F)(F)F)cn1 [Example 33]
Output: not met

Next:
Input: Is 7 nM strictly greater than the compound's reported Kb? compound: CCN(C(=O)c1nc(C)ccc1-n1nccn1)[C@@H](C)COc1ncc(C(F)(F)F)cn1 [Example 23]
Output: met

Input: Is 7 nM strictly greater than the compound's reported Kb? compound: CCN(C(=O)c1cc(OC)cnc1-n1nccn1)[C@@H](C)COc1ncc(C(F)(F)F)cc1F [Example 54]
Output: met

----------
Target: human Orexin 1 receptor (Homo sapiens, UniProt O43613)
Construct: stably expressing the full-length human Orexin 1 receptor; expressed in transfected cells; host or cells: CHO-K1 (CHO-K1/hOX1), co-expressing aequorin
Sequence (O43613 1-425): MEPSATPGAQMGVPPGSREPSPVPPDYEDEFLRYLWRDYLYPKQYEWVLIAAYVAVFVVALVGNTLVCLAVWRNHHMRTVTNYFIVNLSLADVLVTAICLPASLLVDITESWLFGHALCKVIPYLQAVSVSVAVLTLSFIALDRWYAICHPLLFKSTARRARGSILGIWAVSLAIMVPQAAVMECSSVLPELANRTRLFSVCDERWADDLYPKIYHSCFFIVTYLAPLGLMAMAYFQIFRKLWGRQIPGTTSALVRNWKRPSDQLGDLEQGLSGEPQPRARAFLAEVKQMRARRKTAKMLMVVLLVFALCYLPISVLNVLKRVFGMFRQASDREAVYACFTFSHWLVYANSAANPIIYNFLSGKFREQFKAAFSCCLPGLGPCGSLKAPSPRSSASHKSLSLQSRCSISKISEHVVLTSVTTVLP
Assay: Assay A: OX1R IP1 (in vitro OX1R potency)
Type: cell-based
experimental-readout: OX2R Kb/OX1R Kb
In your answer, state the number alone without any accompanying words.

Sample records with OX2R Kb/OX1R Kb:
Input: Request the reported OX2R Kb/OX1R Kb associated with CCN(C(=O)c1ncccc1-n1nccn1)[C@@H](C)COc1ccc(Cl)cn1
Output: 113

Input: Request the reported OX2R Kb/OX1R Kb associated with CCN(C(=O)c1cc(F)cnc1-n1nccn1)[C@@H](C)COc1ccc(Cl)cn1
Output: 215

Next:
Input: Request the reported OX2R Kb/OX1R Kb associated with CCN(C(=O)c1cccnc1-n1nccn1)[C@@H](C)COc1ccc(C(F)(F)F)cn1
Output: 294

Input: Request the reported OX2R Kb/OX1R Kb associated with CCN(C(=O)c1ncccc1-n1nccn1)[C@@H](C)COc1ncc(C(F)(F)F)cc1F
Output: 233

Input: Request the reported OX2R Kb/OX1R Kb associated with CCN(C(=O)c1ccc(C)nc1-n1nccn1)[C@@H](C)COc1ccc(C(F)(F)F)cn1
Output: 1618

Input: Request the reported OX2R Kb/OX1R Kb associated with CCN(C(=O)c1ccc(C(F)(F)F)nc1-c1ccn(C)n1)[C@@H](C)COc1ccc(C(F)(F)F)cn1
Output: 353

Input: Request the reported OX2R Kb/OX1R Kb associated with CCN(C(=O)c1nc(C)ccc1-n1nccn1)[C@@H](C)COc1ncc(C(F)(F)F)cn1
Output: 439
